Target: GLP-1R (Homo sapiens, UniProt P43220)
Sequence (P43220 24-463): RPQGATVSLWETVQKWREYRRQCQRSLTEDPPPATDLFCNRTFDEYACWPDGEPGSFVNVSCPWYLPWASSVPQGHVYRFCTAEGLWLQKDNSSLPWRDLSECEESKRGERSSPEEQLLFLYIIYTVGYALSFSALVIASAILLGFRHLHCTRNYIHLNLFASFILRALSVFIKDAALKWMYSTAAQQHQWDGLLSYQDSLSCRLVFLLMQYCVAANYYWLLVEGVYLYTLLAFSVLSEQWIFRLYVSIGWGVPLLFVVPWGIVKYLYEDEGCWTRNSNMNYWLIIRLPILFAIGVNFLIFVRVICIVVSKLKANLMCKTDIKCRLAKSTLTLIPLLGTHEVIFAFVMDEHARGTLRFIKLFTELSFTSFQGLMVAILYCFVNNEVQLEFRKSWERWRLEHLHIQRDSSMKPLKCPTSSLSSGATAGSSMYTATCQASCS
Sequence (P01275 100-127 partner limits assumed): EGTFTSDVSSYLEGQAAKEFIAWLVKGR
Experiment: EC20 GLP-1(9-36) PAM cAMP Assay: dose response of compound in the presence of fixed concentration of GLP-1(9-36)
Conditions: GLP-1R CRE-bla CHO-K1 cells, in presence of fixed concentration of GLP-1(9-36), 30 min at 37° C.
Excerpt: EC20 GLP-1(9-36) PAM cAMP Assay: Dose Response of Compound in the Presence of Fixed Concentration of GLP-1 (9-36). […]
value-kind: EC50

Given item CCCC1CCC(C2CC=C(c3cnc(-c4ccc(C[C@H](NC(=O)c5cnc(C(C)(C)C)nc5)C(=O)N5CC(C(=O)O)C5)cc4)nc3)CC2)CC1 (stereo partly drawn) , the value recorded as its EC50 is < 500 nM

Given item CCCC1CCC(C2CC=C(c3cnc(-c4ccc(C[C@H](NC(=O)c5ccc(C(C)(C)C)s5)C(=O)N5CC(C(=O)O)C5)cc4)nc3)CC2)CC1 (mixture of isomers) , the value recorded as its EC50 is < 500 nM

Given item CCCC1CCC(C2CC=C(c3cnc(-c4ccc(C[C@H](NC(=O)c5ccc(C(C)C)s5)C(=O)N5CC(C(=O)O)C5)cc4)nc3)CC2)CC1 (stereo partly drawn) , the value recorded as its EC50 is < 500 nM
